test system: RPMI-8226 leukemia; experiment: NCI-60 one-dose screen, 48 h; conditions: 10 µM unless noted
Compounds without any hit were thinned out: in the full panel of roughly 83,000, 20% have a hit. Activity calls are given as the source filed them. How the source made its calls: active means growth percent below 10; inactive means the rest.
Outcome (select one): active, inactive

Use the examples below as a reference point.
Ic1ccc(Nc2nc3nonc3nc2Nc2ccc(I)cc2)cc1    active
Fc1cccc(-c2nc(-c3c[nH]c4ncccc34)cs2)c1    inactive

Could you please tell me the result logged for CC(O)Cc1c[nH]c(=O)[nH]c1=O (stereo unspecified) in this assay?
inactive

Could you please tell me the result logged for O=S(Nc1ccccc1)c1ccc(Cl)cc1 (stereo unspecified) in this assay?
inactive

Could you please tell me the result logged for `CC(C)NS(=O)(=O)/N=C1\NC(=O)NC1=C(Cl)Cl` in this assay?
inactive

Could you please tell me the result logged for `CC[C@H](Nc1nc(N)nc(C)c1C#N)c1nc2cccc(CN(C)c3ncc(C(=O)NO)cn3)c2c(=O)n1-c1ccccc1` in this assay?
active

Could you please tell me the result logged for `Cc1nc2sc(C(=O)Nc3cccc4ccccc34)c(N)c2cc1C(=O)c1ccccc1` in this assay?
inactive

Could you please tell me the result logged for `CC1=C2CC/C(C)=C/CC[C@]3(C)O[C@H]3CC/C(C)=C/[C@H]2OC1` in this assay?
inactive

Could you please tell me the result logged for `CCCCn1c(NC(C)=O)c(S(=O)(=O)c2ccccc2)c2nc3ccccc3nc21` in this assay?
inactive

Could you please tell me the result logged for `CCOC(=O)C#Cc1c(C(=O)OCC)nnn1[C@@H]1O[C@H](COC)[C@@H](OC)[C@H]1OC` in this assay?
inactive

Could you please tell me the result logged for `COC(=O)c1c(C)nc(C)c2c1C(=O)C=C(NCc1ccccc1)C2=O` in this assay?
inactive

Could you please tell me the result logged for `O=C1Nc2ccc(Cl)cc2/C1=C/c1ccc[nH]1` in this assay?
inactive

Could you please tell me the result logged for COc1ccc(CN2C(=O)OC(C)(COC(C)=O)C2=O)cc1 (stereo unspecified) in this assay?
inactive

Could you please tell me the result logged for `CCOC(=O)c1nnn(-c2no[n+]([O-])c2-c2ccc(OC)cc2)c1COc1cccc2cccnc12` in this assay?
active

Could you please tell me the result logged for `N#Cc1nn(-c2cc(=O)[nH]c3ccc(Br)cc23)c(N)c1C#N` in this assay?
active

Could you please tell me the result logged for `O=C(Cc1ccc(/C=C/C(=O)c2ncc[nH]2)cc1)Nc1cc(F)c(F)c(F)c1` in this assay?
active

Could you please tell me the result logged for `CS(=O)(=O)Nc1cc(-c2ccc3ncnc(Nc4ccc5c(cnn5Cc5ccncc5)c4)c3c2)cnc1Cl` in this assay?
inactive

Could you please tell me the result logged for `COc1cc(C=C2C(=O)NC(=S)NC2=O)cc(CN2CCCC2)c1O` in this assay?
inactive

Could you please tell me the result logged for `C=CC(=O)Nc1cccc(Oc2nccc(Nc3nnc(-c4ccc(Br)cc4)s3)n2)c1` in this assay?
inactive

Could you please tell me the result logged for `c1cc(OCCN2CCCC2)ccc1CNc1ccc2nc(CCC3CCCCC3)[nH]c2c1` in this assay?
active

Could you please tell me the result logged for `CC1(C)N=C(N)N=C(N)N1c1cc(Cl)ccc1Cl` in this assay?
inactive

###

A collection of compounds and their measured growth
Tested on: SF-295 CNS
Assay: NCI-60 one-dose screen, 48 h (100 = growth as untreated, 0 = no growth, -100 = all killed)
Settings: 10 µM unless noted
Description: Cells are grown in 96 well plates and exposed to the test compound for 48 hours. Compounds are tested at a single concentration, which is 10^-5 M for most compounds. The reported endpoint is percent growth (GI% or GIPRCNT), where numbers from 0 - 100% represent growth inhibition, and numbers from -100% - 0 represent cell death. For example, a value of 40 represents 60% growth inhibition. A value of 0 means no net growth occurred over the course of the experiment. […]
Compounds without any hit were thinned out: in the full panel of roughly 83,000, 20% have a hit. Active and inactive are the calls of the source. How the source made its calls: active means growth percent below 10; inactive means the rest.

Some compounds with recorded growth:
Nc1c(Br)cc2c(c1Br)Cc1cc([N+](=O)[O-])ccc1-2    117% (inactive)
O=C(Nc1ccccc1O)c1ccc(CNc2ccnc(C(F)(F)F)c2)cc1    36% (inactive)
COC(=O)/C(CCC=C(C)C)=C1\[C@@H](OC(C)=O)C[C@@]2(C)[C@H]1C/C(=N/O)[C@H]1[C@@]3(C)CC/C(=N\O)[C@@H](C)[C@@H]3CC[C@@]12C    101% (inactive)
Cc1ccc2c(c1)sc1nc(-c3c[nH]c4ccccc34)c(Nc3ccccc3)n12    100% (inactive)
CN1CC(c2ccc(Br)cc2)C(C(=O)c2ccc(Br)cc2)C12C(=O)Nc1ccccc12 (centres undefined)    78.5% (inactive)

Given item `C=C(c1ccc(C(=O)O)c(F)c1)c1cc2c(cc1C)C(C)(C)CCC2(C)C` , the value recorded as its growth is 72.8% (inactive)

Given item `Nc1c(Cl)cc(/C=C2\C=Cc3ccccc32)cc1Cl` , the value recorded as its growth is 115% (inactive)

Given item `Clc1ccc(-c2cc(-c3ccccc3)nc(N3CCN(CCCNc4ccnc5cc(Cl)ccc45)CC3)n2)cc1` , the value recorded as its growth is 39.6% (inactive)

Given item `NS(=O)(=O)c1ccc(C(=O)N=Nc2c(O)[nH]c3ccc(Cl)cc23)cc1` , the value recorded as its growth is 98.7% (inactive)

Given item `Fc1cc2[nH]ncc2c2c3c(c(-c4cn[nH]c4C(F)(F)F)nc12)CCCC3` , the value recorded as its growth is 5.61% (active)
